# target-desc: 5-HT3 receptor (Rattus norvegicus)
# Sequence (P35563 24-483): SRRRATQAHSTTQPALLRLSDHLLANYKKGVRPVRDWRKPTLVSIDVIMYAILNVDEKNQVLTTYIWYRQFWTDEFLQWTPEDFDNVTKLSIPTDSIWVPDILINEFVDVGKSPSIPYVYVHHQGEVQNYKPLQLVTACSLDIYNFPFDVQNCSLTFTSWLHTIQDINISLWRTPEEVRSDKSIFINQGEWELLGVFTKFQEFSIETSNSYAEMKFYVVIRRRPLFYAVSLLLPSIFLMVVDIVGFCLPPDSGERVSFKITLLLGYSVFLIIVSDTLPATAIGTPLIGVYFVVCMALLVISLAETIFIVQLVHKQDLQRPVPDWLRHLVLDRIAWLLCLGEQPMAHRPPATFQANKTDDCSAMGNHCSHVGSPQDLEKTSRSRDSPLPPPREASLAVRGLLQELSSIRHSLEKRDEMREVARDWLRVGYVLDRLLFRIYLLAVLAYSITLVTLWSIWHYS
# method-notes: 5-HT3 receptor-binding assay using [3H]GR65630 (rat cerebral cortex synaptic membrane)
# Design: A crude specimen of synaptic membrane was prepared from the cerebral cortex of rat; from tissue; host or cells: rat cerebral cortex, crude synaptic membrane
# conditions-used: [3H]GR65630 0.2-0.3 nM, 50 mM HEPES with Triton X-100, 30 minutes at 23° C., nonspecific: 100 μM metoclopramide
Structures can show the parent of a compound that is named as a salt.
Field: pIC50. Provide a value for each of the molecules that follow.
One number for each entry, as −log10 of the molar value.

molecule	target-desc	pIC50
CCN(C)[C@@H]1CN(C(=O)c2nn(C)c3ccccc23)C[C@@H]1C (relative stereo) [Example 10, hydrochloride]	5-HT3 receptor (Rattus norvegicus)	9.00
CCN(C)[C@@H]1CN(C(=O)c2cn(C)c3ccccc23)C[C@@H]1C (relative stereo) [Example 12, hydrochloride]	5-HT3 receptor (Rattus norvegicus)	8.70

Please examine the following record next.
Which pIC50 value is on record for CN(C)C1CCN(C(=O)c2nn(C)c3ccccc23)C1 (stereo not drawn) [Example 11, hydrochloride] ?
8.52

Recorded values, source patent US5449787A.
